# ASSAY_OVERVIEW: Dissociation of chelates in aq. 1.0M HCl at 80° C. (acid decomplexation kinetic inertness) (Chart 18)
# Assay type: physicochemical
# RECORDED_CONDITIONS: 1 day
fraction of intact chelate values for the compounds below.
ENDPOINT: fraction of intact chelate (%)

> print(dat)
                                   compound                    endpoint  observed.measurement
1  O=C1C[N@@]2CC[N@]3CC[N@@](CC[N@](CC2)Cc2cccc(n2)-c2cnnn2Cc2cc(-c4ccccc4)cc(n2)C3)CC(=O)[O][Cd][O]1 [TD880]  fraction of intact chelate                    99
2  O=C1C[N@@]2CC[N@]3CC[N@@](CC[N@](CC2)Cc2cccc(n2)-c2cnnn2Cc2cc(-c4ccccc4)cc(n2)C3)CC(=O)[O][La][O]1 [TD651]  fraction of intact chelate                     0
3  O=C1C[N@@]2CC[N@]3CC[N@@](CC[N@](CC2)Cc2cccc(n2)-c2cnnn2Cc2cc(-c4ccccc4)cc(n2)C3)CC(=O)[O][Gd][O]1 [TD527]  fraction of intact chelate                    58
4  O=C1C[N@@]2CC[N@]3CC[N@@](CC[N@](CC2)Cc2cccc(n2)-c2cnnn2Cc2cc(-c4ccccc4)cc(n2)C3)CC(=O)[O][Tm][O]1 [TD601]  fraction of intact chelate                   100

* * *

# ASSAY_OVERVIEW: Dissociation of chelates in aq. 0.1M HCl at 80° C. (acid decomplexation kinetic inertness) (Chart 19)
# Format: physicochemical
# RECORDED_CONDITIONS: 1 day
ENDPOINT: fraction of intact chelate (%)

> print(dat)
                                   compound  observed.measurement
1  O=C1C[N@@]2CC[N@]3CC[N@@](CC[N@](CC2)Cc2cccc(n2)-c2cnnn2Cc2cc(-c4ccccc4)cc(n2)C3)CC(=O)[O][Sm][O]1 [TD867]                    86
2  O=C1C[N@@]2CC[N@]3CC[N@@](CC[N@](CC2)Cc2cccc(n2)-c2cnnn2Cc2cc(-c4ccccc4)cc(n2)C3)CC(=O)[O][Er][O]1 [TD865]                   100
3  O=C1C[N@@]2CC[N@]3CC[N@@](CC[N@](CC2)Cc2cccc(n2)-c2cnnn2Cc2cc(-c4ccccc4)cc(n2)C3)CC(=O)[O][Tm][O]1 [TD601]                   100
4  O=C1C[N@@]2CC[N@]3CC[N@@](CC[N@](CC2)Cc2cccc(n2)-c2cnnn2Cc2cc(-c4ccccc4)cc(n2)C3)CC(=O)[O][Eu][O]1 [TD599]                    97
5  O=C1C[N@@]2CC[N@]3CC[N@@](CC[N@](CC2)Cc2cccc(n2)-c2cnnn2Cc2cc(-c4ccccc4)cc(n2)C3)CC(=O)[O][Gd][O]1 [TD527]                    99
6  O=C1C[N@@]2CC[N@]3CC[N@@](CC[N@](CC2)Cc2cccc(n2)-c2cnnn2Cc2cc(-c4ccccc4)cc(n2)C3)CC(=O)[O][Nd][O]1 [TD868]                     0
7  O=C1C[N@@]2CC[N@]3CC[N@@](CC[N@](CC2)Cc2cccc(n2)-c2cnnn2Cc2cc(-c4ccccc4)cc(n2)C3)CC(=O)[O][Lu][O]1 [TD522]                   100
